Experiment: Volume of distribution at steady state in CD1 mouse at 1 mg/kg, iv administered as single dose by HPLC/MS/MS analysis
Format: ADME, organism-based
Conditions: in vivo, read-out: Vdss
value_type: Vd (L/kg)

>>> df
                           structure_string  number
0  CCn1nc(C(C)(C)C)cc1Nc1nc(-c2ccc(-n3cnc(C)c3)c(F)c2)cs1    7.15

---

Target: Gamma-secretase
Assay: Modulation of gamma-secretase in human SH-SY5Y cells overexpressing wild-type human APP751 assessed as inhibition of Abeta42 level after 24 hrs by ELISA
pIC50: −log10 of the molar value.
pIC50 reference
value_type: pIC50

>>> df
                            structure_string  value_type  comparative_sign  number
 0  CCn1nc(C(F)(F)F)cc1Nc1nc(-c2ccc(-n3cnc(C)c3)c(F)c2)cs1       pIC50                 =    6.96
 1  Cc1cn(-c2ccc(-c3csc(Nc4cc(C(C)(C)C)nn4C)n3)cc2F)cn1       pIC50                 =    6.53
 2  Cc1cn(-c2ccc(-c3csc(Nc4cc(C(C)(C)C)nn4C(C)(C)C)n3)cc2F)cn1       pIC50                 =    7.07
 3  CCCn1nc(C(C)(C)C)cc1Nc1nc(-c2ccc(-n3cnc(C)c3)c(F)c2)cs1       pIC50                 =    7.07
 4  CCn1nc2c(c1Nc1nc(-c3ccc(-n4cnc(C)c4)c(F)c3)cs1)CCCC2       pIC50                 =    6.79
 5  Cc1cn(-c2ccc(-c3csc(Nc4c5c(nn4C4CCCC4)CCCC5)n3)cc2F)cn1       pIC50                 =    6.65
 6  Cc1cn(-c2ccc(-c3csc(Nc4c5c(nn4CCF)CCCC5)n3)cc2F)cn1       pIC50                 =    6.96
 7  Cc1cn(-c2ccc(-c3csc(Nc4c5c(nn4CC(C)(C)O)CCCC5)n3)cc2F)cn1       pIC50                 =    7.26
 8  Cc1cn(-c2ccc(-c3csc(Nc4c5c(nn4C4CCC4)CCCC5)n3)cc2F)cn1       pIC50                 =    6.95
 9  CCn1nc2c(c1N(C)c1nc(-c3ccc(-n4cnc(C)c4)c(F)c3)cs1)CCCC2       pIC50                 <    6.00
10  Cc1cn(-c2ccc(-c3csc(Nc4c5c(nn4C4CCCCC4)CCCC5)n3)cc2F)cn1       pIC50                 =    6.55
11  CCn1nc2c(c1Nc1nc(-c3ccc(-n4cnc(C)c4)c(F)c3)cs1)CCC2(C)C       pIC50                 =    7.21
12  Cc1cn(-c2ccc(-c3csc(Nc4cc(C(C)(C)C)nn4C(C)C)n3)cc2F)cn1       pIC50                 =    7.06
13  CCn1nc(C(C)(C)C)cc1Nc1nc(-c2ccc(-n3cnc(C)c3)c(F)c2)cs1       pIC50                 =    7.20
14  Cc1cn(-c2ccc(-c3csc(Nc4c5c(nn4C(C)C)CCC5)n3)cc2F)cn1       pIC50                 =    7.18
15  Cc1cn(-c2ccc(-c3csc(Nc4cc(C(F)(F)F)nn4C(C)(C)C)n3)cc2F)cn1       pIC50                 =    6.92
16  Cc1cn(-c2ccc(-c3csc(Nc4c5c(nn4CCCN4CCOCC4)CCCC5)n3)cc2F)cn1       pIC50                 =    6.57
17  Cc1cn(-c2ccc(-c3csc(Nc4cc(C(F)(F)F)nn4CC(F)(F)F)n3)cc2F)cn1       pIC50                 =    6.11
18  CCn1nccc1Nc1nc(-c2ccc(-n3cnc(C)c3)c(F)c2)cs1       pIC50                 <    6.00
